Test system: windgrass
Assay overview: Test D postemergence
Assay type: in vivo, Apera spica-venti
Particulars: Postemergence, 125 g ai/ha, scale 0 to 100
Listing of entries alongside the reported Windgrass plant response rating.
Readout label: Windgrass plant response rating

- CCCc1cc(C(=O)NC(C)C)nn1Cc1cc(C(F)(F)F)nn1C: 30
- CCc1cc(C(=O)NOC(C)C)nn1Cc1cccc(OC(F)(F)F)c1: 0
- Cc1cc(C(=O)NCC(F)(F)F)nn1Cc1ccnc(C(F)(F)F)c1: 5
- CCCc1cc(C(=O)NC2CC2)nn1Cc1cc(C(F)(F)F)nn1C: 25
- CCc1cc(C(=O)NCC(F)(F)F)nn1Cc1ccnc(SC(F)(F)F)c1: 30

* * *

System: wheat
Assay overview: Test A postemergence
Assay type: in vivo, Triticum aestivum
Particulars: postemergence, 125 g ai/ha, about 10 days, visual rating on 0 to 100 scale (0 no effect, 100 complete control)
Readout label: Wheat plant response rating

* CCc1cc(C(=O)NCC#N)nn1Cc1ccnc(C(F)(F)F)c1 | 0
* O=C(NC1CC1)c1cc(CCCl)n(Cc2ccnc(C(F)(F)F)c2)n1 | 50
* CCNC(=O)c1cc(CCF)n(Cc2ccnc(C(F)(F)F)c2)n1 | 0
* CCc1cc(C(=O)NCC(F)(F)F)nn1Cc1cc(C(F)(F)F)no1 | 0
* Cc1cc(C(=O)NCC(F)(F)F)nn1Oc1ccnc(C(F)(F)F)c1 | 0
* CCCCNC(=O)c1cc(C)n(Oc2ccnc(C(F)(F)F)c2)n1 | 0
* Cc1cc(C(=O)NCC(F)(F)F)nn1Cc1cccc(C(F)(F)F)c1F | 0
* CCc1cc(C(=O)NC2CC2)nn1Cc1nnc(C(F)(F)F)o1 | 0
* CCCNC(=O)c1cc(CC)n(Oc2ccnc(C(F)(F)F)c2)n1 | 0
* Cc1cc(C(=O)NCC(F)(F)C(F)(F)F)nn1Cc1cccc(OC(F)(F)F)c1 | 0
* CCONC(=O)c1cc(CC)n(Cc2ccnc(C(F)(F)F)c2)n1 | 40
* Cc1cc(C(=O)NC2CC2)nn1Oc1ccnc(C(F)(F)F)c1 | 0
* CCc1cc(C(=O)NOC(C)C)nn1Cc1cccc(OC(F)(F)F)c1 | 70
* CCCCc1cc(C(=O)NOCC)nn1Cc1ccnc(C(F)(F)F)c1 | 0
* Cc1cc(C(=O)NCC(F)(F)F)nn1Cc1cc(F)cc(C(F)(F)F)c1 | 0
* O=C(NCC(F)(F)F)c1cc(Cl)n(Cc2cccc(C(F)(F)F)c2)n1 | 0
* CCc1cc(C(=O)NOC(C)C)nn1Cc1ccnc(OC(F)F)c1 | 90
* CCCNC(=O)c1cc(CC)n(Cc2nc(C(F)(F)F)nn2C)n1 | 50

* * *

Listing of entries alongside the reported Plant response rating, Johnsongrass.
Test system: johnsongrass
Assay overview: Test C postemergence
Format: in vivo, Sorghum halepense
Particulars: postemergence; 125 g ai/ha; scale 0 to 100, 0 no effect, 100 complete control
From the text: […]
Readout label: Plant response rating, Johnsongrass

* CCCc1cc(C(=O)NC2CC2)nn1Cc1ccnc(OC(F)F)c1 | 20
* CCOc1cc(C(=O)NOC(C)C)nn1Cc1ccnc(C(F)(F)F)c1 | 0
* CCCc1cc(C(=O)NC2CC2)nn1Cc1cc(C(F)(F)F)nn1C | 5
* CCCNC(=O)c1cc(OCC)n(Cc2ccnc(OC(F)F)c2)n1 | 5
* CCCNC(=O)c1cc(CC)n(Cc2cccc(OC(F)(F)F)c2)n1 | 5
* CCCc1cc(C(=O)NCC(F)(F)F)nn1Cc1ccnc(OC(F)F)c1 | 30
* CCc1cc(C(=O)NOC(C)C)nn1Cc1cccc(OC(F)(F)F)c1 | 10
* Cc1cc(C(=O)NCC(F)(F)F)nn1Cc1ccnc(C(F)(F)F)c1 | 5

* * *

Listing of entries alongside the reported Velvetleaf plant response rating.
Tested on: velvetleaf
Assay overview: Test A postemergence
Format: in vivo, Abutilon theophrasti
Particulars: Postemergence, 500 g ai/ha; 0 to 100 scale (0 no effect, 100 complete control)
Readout label: Velvetleaf plant response rating

* COCc1cc(C(=O)NC(C)C)nn1Cc1ccnc(C(F)(F)F)c1 [Compound 166] | 60
* CCc1cc(C(=O)NCC(F)(F)F)nn1Oc1cccc(C(F)(F)F)c1 [Compound 218] | 40
* CCc1cc(C(=O)NC2CC2)nn1Cc1ccnc(Br)c1 [Compound 220] | 80
* CCCc1cc(C(=O)NOC(C)C)nn1Cc1cc(C(F)(F)F)nn1C [Compound 203] | 90
* O=C(NC1CC1)c1cc(CCF)n(Cc2ccnc(C(F)(F)F)c2)n1 [Compound 176] | 90
* CCOc1cc(C(=O)NCC(F)(F)F)nn1Cc1cc(C(F)(F)F)nn1C [Compound 140] | 80
* CCCNC(=O)c1cc(CC)n(Cc2cc(C(F)(F)C(F)(F)F)nn2C)n1 [Compound 229] | 80
* O=C(NCC(F)(F)F)c1cc(Br)n(Cc2cccc(C(F)(F)F)c2)n1 [Compound 161] | 50
* CCCNC(=O)c1cc(OCC)n(Cc2ccnc(C(F)(F)F)c2)n1 [Compound 187] | 100
* CCNC(=O)c1cc(CC)n(Cc2cc(C(F)(F)F)nn2C)n1 [Compound 154] | 100
* O=C(NC1CC1)c1cc(CCCl)n(Cc2ccnc(C(F)(F)F)c2)n1 [Compound 144] | 90

* * *

System: crabgrass, large
Assay overview: Test C postemergence
Type: in vivo, Digitaria sanguinalis
Particulars: postemergence, 62 g ai/ha; scale 0 to 100
Listing of entries alongside the reported Crabgrass, Large plant response rating.
Readout label: Crabgrass, Large plant response rating

- CCc1cc(C(=O)NC2CC2)nn1Cc1ccnc(Br)c1: 5
- CCCNC(=O)c1cc(CCF)n(Cc2ccnc(C(F)(F)F)c2)n1: 5
- CCONC(=O)c1cc(CC)n(Cc2ccnc(C(F)(F)F)c2)n1: 10
- O=C(NC1CC1)c1cc(CCCl)n(Cc2ccnc(C(F)(F)F)c2)n1: 10
- CCCNC(=O)c1cc(OCC)n(Cc2ccnc(OC(F)F)c2)n1: 5
- CCCc1cc(C(=O)NC(C)C)nn1Cc1cc(C(F)(F)F)nn1C: 10
- CCCc1cc(C(=O)NC2CC2)nn1Cc1ccnc(OC(F)F)c1: 10

* * *

Test system: ducksalad
Assay overview: Test C flooded paddy test
Assay type: in vivo, Heteranthera limosa
Particulars: Flood, 125 g ai/ha; scale 0 to 100
Text: At time of treatment, test pots were flooded to 3 cm above the soil surface, treated by application of test compounds directly to the paddy water, and then maintained at that water depth for the duration of the test. Treated plants and controls were maintained in a greenhouse for 13 to 15 days, after which time all species were compared to controls and visually evaluated. […] A dash (-) response means no test result.
Listing of entries alongside the reported Plant response rating, Ducksalad.
Readout label: Plant response rating, Ducksalad

* CCONC(=O)c1cc(CC)n(Cc2cccc(OC(F)(F)F)c2)n1 [Compound 72] | 75
* CCCCNC(=O)c1cc(CC)n(Cc2ccnc(C(F)(F)F)c2)n1 [Compound 141] | 95
* CCCNC(=O)c1cc(COC)n(Cc2ccnc(C(F)(F)F)c2)n1 [Compound 168] | 70

* * *

System: ryegrass, Italian
Assay overview: Test C preemergence
Type: in vivo, Lolium multiflorum
Particulars: preemergence, 250 g ai/ha; scale 0 to 100, 0 is no effect, 100 is complete control
Readout label: Ryegrass, Italian plant response rating

• CCNC(=O)c1cc(CC)n(Cc2cc(C(F)(F)F)nn2C)n1 = 90
• CCCc1cc(C(=O)NC(C)C)nn1Cc1cc(C(F)(F)F)nn1C = 90
• O=C(NC1CC1)c1cc(CCF)n(Cc2ccnc(C(F)(F)F)c2)n1 = 85
• CCCc1cc(C(=O)NC2CC2)nn1Cc1cc(C(F)(F)F)nn1C = 90

* * *

Test system: barnyardgrass
Assay overview: Test C preemergence
Format: in vivo, Echinochloa crus-galli
Particulars: preemergence, 31 g ai/ha; scale 0 to 100 (0 no effect, 100 complete control), 13 to 15 days
Listing of entries alongside the reported Barnyardgrass plant response rating.
Readout label: Barnyardgrass plant response rating

- CCOc1cc(C(=O)NCC(F)(F)F)nn1Cc1ccnc(OC(F)F)c1: 80
- CCc1cc(C(=O)NCC(F)(F)F)nn1Cc1nc(C(F)(F)F)nn1C: 40
- CCCc1cc(C(=O)NCC(F)(F)F)nn1Cc1ccnc(OC(F)F)c1: 45
- CCCNC(=O)c1cc(OCC)n(Cc2ccnc(OC(F)F)c2)n1: 75

* * *

Test system: barnyardgrass
Assay overview: Test A preemergence
Assay type: in vivo, Echinochloa crus-galli
Particulars: preemergence, 500 g ai/ha, visual injury after approx. 10 days, 0 to 100 scale (0 no effect, 100 complete control)
Readout label: Barnyardgrass plant response rating

* CCc1cc(C(=O)NCC(F)(F)F)nn1Cc1cc(C(F)(F)C(F)(F)F)nn1C | 100
* CCc1cc(C(=O)NCC#N)nn1Cc1ccnc(C(F)(F)F)c1 | 30
* O=C(NC1CC1)c1cc(I)n(Cc2cccc(C(F)(F)F)c2)n1 | 40
* CCCc1cc(C(=O)NCC(F)(F)F)nn1Cc1ccnc(OC(F)F)c1 | 90
* CCCNC(=O)c1cc(OCC)n(Cc2ccnc(OC(F)F)c2)n1 | 100
* CCCc1cc(C(=O)NC2CC2)nn1Cc1ccnc(OC(F)F)c1 | 100
* CCCc1cc(C(=O)Nc2ccc(F)cc2)nn1Oc1ccnc(C(F)(F)F)c1 | 0
* CCc1cc(-c2ccc(C(F)(F)F)cc2)nn1Cc1ccnc(C(F)(F)F)c1 | 100
* CCc1cc(C(=O)NCC(F)(F)F)nn1Cc1cc(C(F)(F)F)nn1C | 100
* CCCNC(=O)c1cc(CC)n(Cc2cc(C(F)(F)C(F)(F)F)nn2C)n1 | 100
* CCc1cc(C(=O)NC)nn1Cc1ccnc(C(F)(F)F)c1 | 80
* CCCNC(=O)c1cc(COC)n(Cc2ccnc(C(F)(F)F)c2)n1 | 100
* CCc1cc(C(=O)NCC(F)(F)C(F)(F)F)nn1Cc1ccnc(C(F)(F)F)c1 | 90
* CCCc1cc(C(=O)NC(C)C)nn1Cc1cc(C(F)(F)F)nn1C | 100
* CCCNC(=O)c1cc(CC)n(Cc2cccc(C(F)(F)F)n2)n1 | 0
* CCc1cc(C(=O)NC2CC2)nn1Cc1ccnc(Br)c1 | 100
* CCNC(=O)c1cc(CC)n(Cc2cc(C(F)(F)F)nn2C)n1 | 100
* CCONC(=O)c1cc(CC)n(Cc2cc(C(F)(F)F)nn2C(C)C)n1 | 10
* CCOc1cc(C(=O)NOC(C)C)nn1Cc1ccnc(C(F)(F)F)c1 | 100
